- System: B16F0 melanoma tumour
- assay method text: Biodistribution in B16 melanoma bearing mice
- Assay type: in vivo, C57BL/6J mice
- condition info: B16 melanoma bearing mice, 1 h
metric: uptake HEART (% ID/g)
// note: answer is a bare numeric in % ID/g

Consider the worked cases shown below.
| compound | uptake HEART (% ID/g) |
| --- | --- |
| CCN(CC)CCNC(=O)c1ccc(F)nc1 [[^18F]MEL2] | 0.977 |
| CCCCN(C)CCCCNC(=O)c1ccc(F)nc1 [[^18F]MEL4] | 0.98 |

Prompt: Fill in the recorded uptake HEART for this compound, with B16F0 melanoma tumour as test system: CCN(CC)CCNC(=O)c1cccnc1F [[^18F]MEL6]
Completion: 1.2

Prompt: Fill in the recorded uptake HEART for this compound, with B16F0 melanoma tumour as test system: CCN(CC)CCNC(=O)c1ccnc(F)c1 [[^18F]MEL8]
Completion: 1.14
